# study target: TRPV1 E571A (Mus musculus, UniProt Q704Y3, E571A)
# Sequence (Q704Y3 whole entry E571A): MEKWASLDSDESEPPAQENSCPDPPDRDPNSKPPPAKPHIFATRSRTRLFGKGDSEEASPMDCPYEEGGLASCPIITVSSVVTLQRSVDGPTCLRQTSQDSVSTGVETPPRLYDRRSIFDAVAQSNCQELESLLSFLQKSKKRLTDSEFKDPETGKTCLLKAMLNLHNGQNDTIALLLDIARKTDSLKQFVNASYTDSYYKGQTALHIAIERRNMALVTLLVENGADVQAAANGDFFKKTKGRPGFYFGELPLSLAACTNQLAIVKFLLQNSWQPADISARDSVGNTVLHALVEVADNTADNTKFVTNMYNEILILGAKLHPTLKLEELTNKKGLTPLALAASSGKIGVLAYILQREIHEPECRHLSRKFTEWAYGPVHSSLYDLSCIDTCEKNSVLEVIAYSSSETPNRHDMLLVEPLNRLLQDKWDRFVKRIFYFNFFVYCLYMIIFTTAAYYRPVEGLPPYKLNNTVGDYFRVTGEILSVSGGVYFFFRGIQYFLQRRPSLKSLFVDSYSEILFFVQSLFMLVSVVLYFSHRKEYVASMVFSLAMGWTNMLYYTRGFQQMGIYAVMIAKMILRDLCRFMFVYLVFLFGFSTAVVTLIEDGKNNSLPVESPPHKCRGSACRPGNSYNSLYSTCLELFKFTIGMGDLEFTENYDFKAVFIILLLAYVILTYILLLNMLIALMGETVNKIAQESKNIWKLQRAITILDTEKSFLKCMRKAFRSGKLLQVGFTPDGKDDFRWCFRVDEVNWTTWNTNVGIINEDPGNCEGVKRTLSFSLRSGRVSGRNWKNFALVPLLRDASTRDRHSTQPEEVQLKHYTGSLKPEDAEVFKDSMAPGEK
# protocol: Single-channel inside-out patch-clamp recording, E571A mutant
List of pEC50 values.
On this scale, pEC50 is minus log10 of a concentration expressed in M (mol/L).

**Query** Hello, I am looking for reported pEC50 with TRPV1 E571A (Mus musculus, UniProt Q704Y3, E571A) for `O=C(/C=C/C=C/c1ccc2c(c1)OCO2)N1CCCCC1` . Could you help?
**Result** 3.56

**Query** Hello, I am looking for reported pEC50 with TRPV1 E571A (Mus musculus, UniProt Q704Y3, E571A) for `COc1cc(CNC(=O)CCCC/C=C/C(C)C)ccc1O` . Could you help?
**Result** 5.89

----------
# study target: mTRPV1 T551V (Mus musculus, UniProt Q704Y3, T551V)
# Sequence (Q704Y3 whole entry T551V): as the sequence (Q704Y3 whole entry E571A) above, with T551V, A571E counted along it
# protocol: Live-cell calcium fluorescence imaging
reported endpoint: pEC50
On this scale, pEC50 is minus log10 of a concentration expressed in M (mol/L).

O=C(/C=C/C=C/c1ccc2c(c1)OCO2)N1CCCCC1; 5.29

**Query** Report pEC50 for `COc1cc(CNC(=O)CCCC/C=C/C(C)C)ccc1O` please.
**Result** 6.00

----------
List of EC50 values.
# study target: WT mTRPV1 (Mus musculus, UniProt Q704Y3)
# protocol: Live-cell calcium fluorescence imaging
# Type: cell-based
Kindly provide the numeric value in nM only, without the unit symbol.

COc1cc(CNC(=O)CCCC/C=C/C(C)C)ccc1O; 100

Then this compound:
**Query** Hello, I am looking for reported EC50 with WT mTRPV1 (Mus musculus, UniProt Q704Y3) for `O=C(/C=C/C=C/c1ccc2c(c1)OCO2)N1CCCCC1` . Could you help?
**Result** 3300

----------
# study target: WT TRPV1 (Mus musculus)
# Sequence (Q704Y3 whole entry): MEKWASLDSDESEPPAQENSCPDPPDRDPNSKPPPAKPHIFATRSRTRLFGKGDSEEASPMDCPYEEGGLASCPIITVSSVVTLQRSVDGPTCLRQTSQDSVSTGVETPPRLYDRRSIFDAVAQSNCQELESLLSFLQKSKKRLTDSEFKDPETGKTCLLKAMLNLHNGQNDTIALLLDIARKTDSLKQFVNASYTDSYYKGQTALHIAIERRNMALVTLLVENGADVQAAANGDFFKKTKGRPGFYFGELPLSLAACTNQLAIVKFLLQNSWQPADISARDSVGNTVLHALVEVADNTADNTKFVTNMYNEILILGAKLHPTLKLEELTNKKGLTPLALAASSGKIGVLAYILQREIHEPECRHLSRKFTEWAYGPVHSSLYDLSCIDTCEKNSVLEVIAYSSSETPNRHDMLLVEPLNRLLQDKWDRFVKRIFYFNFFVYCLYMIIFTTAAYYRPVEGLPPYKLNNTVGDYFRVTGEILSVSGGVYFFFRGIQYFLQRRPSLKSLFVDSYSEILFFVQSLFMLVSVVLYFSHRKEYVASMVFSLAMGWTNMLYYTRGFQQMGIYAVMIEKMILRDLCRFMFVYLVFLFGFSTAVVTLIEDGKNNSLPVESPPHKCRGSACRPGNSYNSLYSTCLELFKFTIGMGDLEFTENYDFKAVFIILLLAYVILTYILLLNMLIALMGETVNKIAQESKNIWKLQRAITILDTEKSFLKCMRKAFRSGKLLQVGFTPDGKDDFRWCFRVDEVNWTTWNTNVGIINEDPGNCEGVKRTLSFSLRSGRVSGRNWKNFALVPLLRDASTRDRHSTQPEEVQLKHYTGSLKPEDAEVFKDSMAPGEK
# protocol: Single-channel inside-out patch-clamp recording, WT channel
reported endpoint: EC50 (µM)
Kindly provide the numeric value in µM only, without the unit symbol.

**Query** Report EC50 for `O=C(/C=C/C=C/c1ccc2c(c1)OCO2)N1CCCCC1` please.
**Result** 252
